- test-summary: HEK293 cytotoxicity, resazurin cell viability assay
- Assay type: cell-based
- test-conditions: human, HEK293 cells, means ± SD, n = 3
For each record, write down the corresponding CC50 at 48 h.
One number for each entry, in µM.

Please review the following examples before continuing.
- substance-smiles: "O=Cc1c(O)ccc2ccc(-c3cccs3)cc12"
  readout-unit: "µM"
  CC50 at 48 h: 31.4
- substance-smiles: "O=Cc1c(O)ccc2ccc(-c3ccco3)cc12"
  readout-unit: "µM"
  CC50 at 48 h: 41.2
- substance-smiles: "C=CCOc1ccc2c(C=O)c(O)ccc2c1"
  readout-unit: "µM"
  CC50 at 48 h: 59.2

Value sought for every listed compound: CC50 at 48 h.
1. O=Cc1c(O)ccc2cc(-c3ccco3)ccc12
2. O=Cc1c(O)ccc2cc(-c3ccsc3)ccc12
3. O=Cc1c(O)ccc2cc(-c3cccs3)ccc12

1. 37.1
2. 38.4
3. 33.9

====

- target-desc: HEG1-KRIT1 PPI (Homo sapiens, UniProt O00522)
- Construct: a recombinant FERM domain (residues 417–736) of KRIT1; made in house; host or cells: E. coli
- Sequence (O00522 417-736): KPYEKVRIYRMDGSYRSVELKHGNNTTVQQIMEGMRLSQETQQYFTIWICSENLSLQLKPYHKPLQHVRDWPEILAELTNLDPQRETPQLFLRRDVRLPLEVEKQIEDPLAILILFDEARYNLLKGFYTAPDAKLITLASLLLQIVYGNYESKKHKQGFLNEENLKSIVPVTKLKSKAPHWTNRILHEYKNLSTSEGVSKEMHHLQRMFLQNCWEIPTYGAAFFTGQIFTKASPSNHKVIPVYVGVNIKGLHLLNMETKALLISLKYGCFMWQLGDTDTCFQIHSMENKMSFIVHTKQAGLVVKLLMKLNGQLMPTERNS
- test-summary: HEG1-KRIT1 PPI fluorescence polarization (FP) time-resolved assay
- Assay type: biochemical
- test-conditions: global fit across six or more inhibitor concentrations; means ± SD, n = 3
Assign HEG1-KRIT1 PPI Assay kon to each entry below.
One number for each entry, in M⁻¹ s⁻¹.

Some solved cases for reference:
- molecule: "O=Cc1c(O)ccc2cc(-c3ccco3)ccc12 [Compound 5]"
  measured-endpoint: "HEG1-KRIT1 PPI Assay kon"
  assay-result: 108
- molecule: "O=Cc1c(O)ccc2ccc(-c3cccs3)cc12 [Compound 16]"
  measured-endpoint: "HEG1-KRIT1 PPI Assay kon"
  assay-result: 232

Give HEG1-KRIT1 PPI Assay kon for each of the items listed below.
1. C#Cc1ccc2c(C=O)c(O)ccc2c1 [Compound 3]
2. O=Cc1c(O)ccc2cc(-c3ccsc3)ccc12 [Compound 15]
3. C=CCOc1ccc2c(C=O)c(O)ccc2c1 [Compound 9]
4. O=Cc1c(O)ccc2cc(Cl)ccc12 [Compound 8]
5. O=Cc1c(O)ccc2ccccc12 [Compound 1, 2-hydroxy-1-naphthaldehyde]
6. O=Cc1c(O)ccc2cc(-c3ccccc3)ccc12 [Compound 13]

1. 179
2. 60.3
3. 24.6
4. 35.6
5. 14.4
6. 112

Give HEG1-KRIT1 PPI Assay kon for all molecules that follow.
1. O=Cc1c(O)ccc2ccc(-c3ccco3)cc12 [Compound 6]
2. CC#Cc1ccc2c(C=O)c(O)ccc2c1 [Compound 12]
3. O=Cc1c(O)ccc2cc(OC(F)F)ccc12 [Compound 10]
4. O=Cc1c(O)ccc2cc(-c3cccs3)ccc12 [Compound 4]
5. C=CCc1ccc2c(C=O)c(O)ccc2c1 [Compound 7]

1: 52.8; 2: 43.1; 3: 29.7; 4: 200; 5: 50.8

====

Would you kindly list log10 of Ki for each of these compounds?
- target-desc: HEG1-KRIT1 PPI (Homo sapiens, UniProt O00522)
- Construct: a recombinant FERM domain (residues 417–736) of KRIT1
- test-summary: HEG1-KRIT1 PPI fluorescence polarization (FP) time-resolved assay
- test-conditions: global fit; means ± SD, n = 3; unit in Figure 2E; read-out: HEG1-KRIT1 PPI Assay Ki (koff/kon)
Recorded Ki (log10, nM)

// solved cases for log10 of Ki follow
- compound: "COc1ccc2c(C=O)c(O)ccc2c1 [Compound 2, 2-hydroxy-6-methoxy-1-naphthaldehyde]"
  log10 of Ki: 3.04
- compound: "C=CCc1ccc2c(C=O)c(O)ccc2c1"
  log10 of Ki: 2.80
- compound: "C=CCOc1ccc2c(C=O)c(O)ccc2c1"
  log10 of Ki: 2.97
- compound: "O=Cc1c(O)ccc2ccc(-c3ccco3)cc12"
  log10 of Ki: 2.97
- compound: "O=Cc1c(O)ccc2cc(-c3c[nH]nn3)ccc12"
  log10 of Ki: 3.64
- compound: "O=Cc1c(O)ccc2cc(OC(F)F)ccc12"
  log10 of Ki: 3.01
- compound: "O=Cc1c(O)ccc2cc(-c3ccsc3)ccc12"
  log10 of Ki: 2.92
- compound: "O=Cc1c(O)ccc2ccccc12 [Compound 1, 2-hydroxy-1-naphthaldehyde]"
  log10 of Ki: 3.36
- compound: "CN(C)c1ccc2c(C=O)c(O)ccc2c1"
  log10 of Ki: 4.06
- compound: "O=Cc1c(O)ccc2cc(-c3ccco3)ccc12"
  log10 of Ki: 2.91

For each of the compounds below, note its log10 of Ki.
1. O=Cc1c(O)ccc2cc(-c3cccs3)ccc12
2. CC#Cc1ccc2c(C=O)c(O)ccc2c1
3. C#Cc1ccc2c(C=O)c(O)ccc2c1

1. 2.76
2. 3.00
3. 2.82

====

- test-summary: HEK293 cytotoxicity, resazurin cell viability assay
- Type: cell-based
- test-conditions: human, HEK293 cells, means ± SD, n = 3
Assignment: determine reported CC50 at 48 h for the given compounds.
Give bare numbers, in µM.

- compound: "O=Cc1c(O)ccc2cc(-c3ccccc3)ccc12 [Compound 13]"
  measured-endpoint: "CC50 at 48 h"
  readout-unit: "µM"
  assay-result: 43.5

GET /values?readout=CC50 at 48 h&item= C=CCc1ccc2c(C=O)c(O)ccc2c1 [Compound 7]
33.9

====

- target-desc: HEG1-KRIT1 PPI (Homo sapiens, UniProt O00522)
- Construct: a recombinant FERM domain (residues 417–736) of KRIT1; made in house; host or cells: E. coli
- test-summary: HEG1-KRIT1 PPI fluorescence polarization (FP) time-resolved assay
- Format: biochemical
- test-conditions: global fit across six or more inhibitor concentrations; means ± SD, n = 3
- Procedure: To evaluate the binding kinetics of HNA inhibitors, a fluorescence polarization (FP) time-resolved assay that uses a recombinant FERM domain (residues 417–736) of KRIT1 and a fluorescence-tagged HEG1 cytoplasmic tail (Cy5-HEG1 7-mer peptide) was developed (Supporting Information). Using HNA as a test compound, the FP data, expressed as millipolarization (mP) units, were obtained every 10 min over the course of 4–7 h. […] Fluorescence Polarization Assay and Optimization […]
measured-endpoint: koff (s⁻¹)
Numbers only, in s⁻¹.

Recorded koff, per entry:
- compound: "C#Cc1ccc2c(C=O)c(O)ccc2c1"
  target-desc: "HEG1-KRIT1 PPI (Homo sapiens, UniProt O00522)"
  koff, s⁻¹: 0.000118
- compound: "C=CCOc1ccc2c(C=O)c(O)ccc2c1"
  target-desc: "HEG1-KRIT1 PPI (Homo sapiens, UniProt O00522)"
  koff, s⁻¹: "2.29e-05"
- compound: "O=Cc1c(O)ccc2cc(Cl)ccc12"
  target-desc: "HEG1-KRIT1 PPI (Homo sapiens, UniProt O00522)"
  koff, s⁻¹: "2.97e-05"

For each of the compounds below, note its koff.
1. COc1ccc2c(C=O)c(O)ccc2c1 [Compound 2, 2-hydroxy-6-methoxy-1-naphthaldehyde]
2. O=Cc1c(O)ccc2cc(-c3ccsc3)ccc12

1: 1.54e-05; 2: 5e-05

====

- target-desc: HEG1-KRIT1 PPI (Homo sapiens)
- Construct: a recombinant FERM domain (residues 417–736) of KRIT1; made in house; host or cells: E. coli
- test-summary: HEG1-KRIT1 PPI fluorescence polarization (FP) time-resolved assay
- Format: biochemical
- test-conditions: global fit across six or more inhibitor concentrations; means ± SD, n = 3
measured-endpoint: koff (s⁻¹)
Answers are plain numbers, in s⁻¹.

- molecule: "O=Cc1c(O)ccc2cc(-c3ccccc3)ccc12"
  target-desc: "HEG1-KRIT1 PPI (Homo sapiens)"
  koff (s⁻¹): "7.28e-05"

Lab note: each molecule below needs its koff filled in.
1. O=Cc1c(O)ccc2cc(-c3c[nH]nn3)ccc12
2. O=Cc1c(O)ccc2cc(-c3cccs3)ccc12
3. C=CCc1ccc2c(C=O)c(O)ccc2c1
4. O=Cc1c(O)ccc2ccc(-c3cccs3)cc12
5. CC#Cc1ccc2c(C=O)c(O)ccc2c1
6. O=Cc1c(O)ccc2cc(-c3ccco3)ccc12
7. O=Cc1c(O)ccc2ccc(-c3ccco3)cc12
8. O=Cc1c(O)ccc2ccccc12 [Compound 1, 2-hydroxy-1-naphthaldehyde]

1. 1.99e-05
2. 0.000114
3. 3.19e-05
4. 7.28e-05
5. 4.36e-05
6. 8.81e-05
7. 4.97e-05
8. 3.31e-05

Batch request: koff for each of the following molecules.
1. CN(C)c1ccc2c(C=O)c(O)ccc2c1
2. O=Cc1c(O)ccc2cc(OC(F)F)ccc12

1. 0.00011
2. 3.08e-05

====

- target-desc: HEG1-KRIT1 PPI (Homo sapiens, UniProt O00522)
- Construct: a recombinant FERM domain (residues 417–736) of KRIT1
- test-summary: HEG1-KRIT1 PPI fluorescence polarization (FP) time-resolved assay
- test-conditions: fluorescence polarization assay after 4 h of incubation; means ± SD, n = 3
measured-endpoint: pIC50
Answers are plain numbers, as −log10 of the molar value.

Please review the following examples before continuing.
- compound: "CC#Cc1ccc2c(C=O)c(O)ccc2c1"
  pIC50: 5.85
- compound: "C=CCOc1ccc2c(C=O)c(O)ccc2c1"
  pIC50: 5.56
- compound: "O=Cc1c(O)ccc2cc(-c3c[nH]nn3)ccc12"
  pIC50: 4.92
- compound: "CN(C)c1ccc2c(C=O)c(O)ccc2c1"
  pIC50: 4.92
- compound: "O=Cc1c(O)ccc2ccc(-c3ccco3)cc12"
  pIC50: 6.03
- compound: "O=Cc1c(O)ccc2cc(Cl)ccc12"
  pIC50: 5.74

Hi team, please reply with pIC50 for each item in this list.
1. C#Cc1ccc2c(C=O)c(O)ccc2c1
2. C=CCc1ccc2c(C=O)c(O)ccc2c1
3. O=Cc1c(O)ccc2ccccc12 [Compound 1, 2-hydroxy-1-naphthaldehyde]
4. O=Cc1c(O)ccc2cc(OC(F)F)ccc12
5. O=Cc1c(O)ccc2ccc(-c3cccs3)cc12
6. O=Cc1c(O)ccc2cc(-c3ccccc3)ccc12

1: 6.19; 2: 5.91; 3: 5.09; 4: 5.66; 5: 6.62; 6: 6.10

Hi, could you look up pIC50 for each item in my list?
1. COc1ccc2c(C=O)c(O)ccc2c1 [Compound 2, 2-hydroxy-6-methoxy-1-naphthaldehyde]
2. O=Cc1c(O)ccc2cc(-c3ccco3)ccc12
3. O=Cc1c(O)ccc2cc(-c3ccsc3)ccc12

[5.40, 6.16, 5.93]

What value of pIC50 on HEG1-KRIT1 PPI (Homo sapiens, UniProt O00522) does "O=Cc1c(O)ccc2cc(-c3cccs3)ccc12" have?
6.33
